assay: probe aEGFR binding to arrayed compounds – biochemical, biotinylated probe, 635/667 nm fluorescence, primary screen (AID 1097); conditions: small-molecule microarray, higher = more signal;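 also: probe is a biotinylated anti-EGFR antibody binding compounds printed on slides; score combines fluorescence near 667 nm and signal to noise of each spot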
Class definitions on composite z-score: lower bin (below -0.05), middle bin (-0.05 to below 0.04), upper bin (0.04 or more)

Sample answers from the record:
{"MOLECULE": "CC1(C)[C@@H]2CC(C(O)C3C=CC4C(=O)N(c5ccccc5)C(=O)C4N3Nc3ccccc3F)=C[C@@H]1C2 (stereo partly drawn)", "CLASS": "middle bin"}
{"MOLECULE": "COC(=O)[C@@]1(Cc2ccccc2)[C@H]2c3cc(C(=O)N4CCCC4)n(CCO)c3C[C@H]2CN1C(=O)c1ccccc1", "CLASS": "upper bin"}
{"MOLECULE": "COC(=O)[C@@]1(Cc2ccc(OC)cc2)[C@H]2c3cc(C(=O)N(C)C)n(Cc4cc(C)n(C)n4)c3C[C@H]2CN1C(=O)c1ccccc1", "CLASS": "upper bin"}
{"MOLECULE": "COc1ccc([Si](C)(C)[C@H]2[C@H](CCn3cc(CCO)nn3)O[C@@]3(C(=O)N(Cc4cccc(N5C(=O)c6cccc7cccc5c67)c4)c4ccccc43)[C@@H]2C)cc1", "CLASS": "lower bin"}
{"MOLECULE": "O=C1NC(=O)C2C1C=CC(C(O)c1ccc(-c3ccccc3)s1)N2Nc1ccccn1 (stereo not drawn)", "CLASS": "middle bin"}
{"MOLECULE": "O=C1C2C=CC(C(O)c3ccccn3)N(Nc3ccccc3)C2C(=O)N1c1ccccc1 (stereo not drawn)", "CLASS": "lower bin"}
{"MOLECULE": "COC(=O)C(CC#Cc1ccc2c(c1)[C@]1(C(=O)N2)[C@H](c2ccc(O)cc2)N2[C@H](c3ccccc3)[C@H](c3ccccc3)OC(=O)[C@H]2[C@@H]1C(N)=O)C(=O)OC", "CLASS": "upper bin"}
{"MOLECULE": "COc1ccc([Si](C)(C)[C@@H]2[C@@H](CCO)O[C@]3(C(=O)N(Cc4ccccc4)c4ccc(N5C(=O)COc6ccccc65)cc43)[C@H]2C)cc1", "CLASS": "lower bin"}
{"MOLECULE": "O=C1N(CCS(=O)(=O)c2ccccc2)Cc2ccccc2C[C@@]12COC(c1ccc(OCCCO)cc1)=N2", "CLASS": "upper bin"}
{"MOLECULE": "CC(C)NC(=O)[C@@H]1c2ccccc2C(=O)N(Cc2cc(C(F)(F)F)cc(C(F)(F)F)c2)[C@H]1c1ccc(CO)cc1", "CLASS": "middle bin"}

Which category fits this record: `O=C1N(Cc2ccccc2)c2ccccc2[C@H]2OC(c3ccc(OCCCO)cc3)=N[C@@]12CCS(=O)(=O)c1ccccc1`
lower bin

Now the same for C=C(C)[C@@H]1CC=C(C(O)C2C=CC3C(=O)N(C4CCCCC4)C(=O)C3N2Nc2ccc(OC)cc2)CC1 (stereo partly drawn)
middle bin

Now the same for `COCCOC(=O)N1C(=O)[C@@]2(c3cc(C#CCCO)ccc31)[C@H](C(=O)N1CCc3cc(OC)c(OC)cc3C1)[C@H]1C(=O)O[C@H](c3ccccc3)[C@H](c3ccccc3)N1[C@@H]2c1ccc(OCCO)cc1`
lower bin

Now the same for `COc1ccc(C#Cc2ccc3c(c2)[C@]2(C(=O)N3)[C@H](C(=O)O)[C@H]3C(=O)O[C@H](c4ccccc4)[C@H](c4ccccc4)N3[C@@H]2c2ccc(OCCO)cc2)cc1`
middle bin

Now the same for `CC(C)CN1C(=O)[C@@]2(Cc3ccccc31)c1ccccc1C(=O)N(Cc1ccccc1)[C@H]2c1ccc(CO)cc1`
lower bin

----------
The entries below come with measured composite z-score values attached.
tested on: Plasmodium falciparum Sir2 (PF13_0152, Sir2A); test: Plasmodium falciparum Sir2A binding compounds – biochemical, small-molecule microarray, 635 nm fluorescence, primary screen (AID 1098); conditions: fluorescence 635 nm, higher = more signal;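 also: score merges spot fluorescence intensity with its signal-to-noise ratio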
Simply state the number, no unit and no words.

{"MOLECULE": "CC(C)c1ccc(NN2C(C(O)c3cccs3)C=CC3C(=O)N(c4ccccc4)C(=O)C32)cc1 (stereo not drawn)", "TARGET OR SYSTEM": "Plasmodium falciparum Sir2 (PF13_0152, Sir2A)", "composite z-score": 1.02}
{"MOLECULE": "CN(C)C(=O)[C@@]1(Cc2ccccc2N=[N+]=[N-])N=C(c2ccc(OCCCO)cc2)O[C@H]1c1ccccc1N=[N+]=[N-]", "TARGET OR SYSTEM": "Plasmodium falciparum Sir2 (PF13_0152, Sir2A)", "composite z-score": 0.974}

Turning now to a further record.
Would you mind telling me what composite z-score value was observed for `COCCOC(=O)N1C(=O)[C@@]2(c3cc(C#CC4(O)CCCCCC4)ccc31)[C@H](C(=O)NC[C@H](O)c1ccccc1)[C@H]1C(=O)O[C@H](c3ccccc3)[C@H](c3ccccc3)N1[C@@H]2c1ccc(OCCO)cc1` ?
0.971

----------
experiment: plasmodial surface anion channel blockers, osmotic lysis – cell-based, P. falciparum Indochina, OD700, 18 h, primary screen (AID 1157); conditions: P. falciparum Indochina infected erythrocytes, osmotic lysis OD700, 18 h; higher = more signal, called active from +8 up or from −8 down
The entries below come with measured z-score values attached.
Simply state the number, no unit and no words.

Solved cases (5 shown):
{"MOLECULE": "C=CCC(OC(C)=O)[C@@H]1[C@@H](N(Cc2cccc3ccccc23)C(=O)Cc2ccc(F)cc2)c2cc(OCCCO)ccc2N1C(=O)Cc1ccc(OC)cc1 (stereo partly specified)", "READOUT LABEL": "z-score", "VALUE MEASURED": -0.545}
{"MOLECULE": "COCCCNC(=O)[C@]1(Cc2ccccc2CN=[N+]=[N-])N=C(c2ccc(OCCCO)cc2)O[C@@H]1c1ccccc1CN=[N+]=[N-]", "READOUT LABEL": "z-score", "VALUE MEASURED": 2.09}
{"MOLECULE": "CCCC[C@@H](O)C1=C(COc2ccccc2)Cn2c(=O)n(-c3ccccc3)c(=O)n2[C@H]1CO", "READOUT LABEL": "z-score", "VALUE MEASURED": -2.27}
{"MOLECULE": "Cc1ccc(S[C@]2(C(=O)NCC(C)C)CC(=O)N(C3CCCCC3)[C@@H]2c2ccc(CO)cc2I)cc1", "READOUT LABEL": "z-score", "VALUE MEASURED": 0.597}
{"MOLECULE": "COC(=O)[C@]1(Cc2ccccc2CN=[N+]=[N-])N=C(c2ccc(OCCCO)cc2)O[C@@H]1c1ccccc1CN=[N+]=[N-]", "READOUT LABEL": "z-score", "VALUE MEASURED": 5.85}

Would you mind telling me what z-score value was observed for `COCCCNC(=O)[C@@]1(Cc2ccccc2CN=[N+]=[N-])N=C(c2ccc(OCCCO)cc2)O[C@H]1c1ccccc1N=[N+]=[N-]` ?
3.1

----------
molecular target: Torsin-1A (Homo sapiens) (UniProt O14656); test: TOR1A wild-type binding on microarray – cell lysate, small-molecule microarray, lysate, 635/667 nm, primary screen (AID 1149); details: COS7 hTOR1A-WT lysate, 635 nm fluorescence, higher = more signal
Sequence (O14656 whole entry, looked up): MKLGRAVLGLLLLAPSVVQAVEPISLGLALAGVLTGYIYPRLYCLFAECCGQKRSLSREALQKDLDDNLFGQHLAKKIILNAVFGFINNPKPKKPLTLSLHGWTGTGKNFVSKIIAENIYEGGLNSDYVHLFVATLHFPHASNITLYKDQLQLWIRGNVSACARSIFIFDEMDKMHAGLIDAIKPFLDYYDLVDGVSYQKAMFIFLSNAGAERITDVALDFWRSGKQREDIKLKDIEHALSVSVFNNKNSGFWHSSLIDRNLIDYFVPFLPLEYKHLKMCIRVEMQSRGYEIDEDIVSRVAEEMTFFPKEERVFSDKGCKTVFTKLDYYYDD
Rule: composite z-score under 0.7 gives no (0), otherwise yes (1).

{"MOLECULE": "Cc1ccc(S[C@]2(C(=O)NCc3ccccc3)CC(=O)N(C3Cc4ccccc4C3)[C@@H]2c2ccc(CO)cc2I)cc1", "CLASS": "no (0)"}

Is composite z-score for CN1C(=O)C2C=CC(C(O)COCc3ccccc3)N(Nc3ccccc3)C2C1=O (stereo not drawn) at or above 0.7?
no (0)

Now the same for `COCCOC(=O)N1C(=O)[C@@]2(c3cc(C#CCC(C(=O)OC)C(=O)OC)ccc31)[C@H](C(=O)N1CCCCCCC1)[C@H]1C(=O)O[C@H](c3ccccc3)[C@H](c3ccccc3)N1[C@@H]2c1ccc(O)cc1`
yes (1)

Now the same for `COC(=O)[C@@]1(Cc2ccc(OC)cc2)[C@H]2c3cc(C(=O)N4CCCC4)n(Cc4ccc(C)o4)c3C[C@H]2CN1C(=O)c1ccccc1`
no (0)

----------
biological target: Neurogenic locus notch homolog protein 2 (Homo sapiens); assay: small molecules binding Notch2 protein – biochemical, small-molecule microarray, 635 nm fluorescence, stem cell growth factors, primary screen (AID 1073); settings: higher = more signal
Rule: composite z-score under 0.04 gives not fulfilled, otherwise fulfilled.

{"COMPOUND": "CCOC(=O)C[C@H]1[C@H](OC(=O)c2ccccc2-c2ccccc2)[C@@H](NC(=O)c2ccccc2)c2cc(OCCCO)ccc2N1C(=O)Cc1ccc(OC)cc1", "CLASS": "fulfilled"}
{"COMPOUND": "C=C(/C(=C/C[C@@H](OC(=O)c1ccncc1)c1ccccc1OCCO)c1cnc2ccccc2c1)C(C)C", "CLASS": "fulfilled"}
{"COMPOUND": "CCCCC(=C=CC[C@H](O)c1ccccc1OCCO)C[C@H](O)c1ccccn1", "CLASS": "not fulfilled"}
{"COMPOUND": "COc1ccc([Si](C)(C)[C@@H]2[C@@H](CCO)O[C@]3(C(=O)N(Cc4ccccc4)c4ccc(N5CCCCC5=O)cc43)[C@H]2C)cc1", "CLASS": "fulfilled"}

Attention now shifts to the item below.
Is composite z-score for `COCC1=C([C@H](O)CCc2ccccc2)[C@H](CO)[C@@H]2C(=O)N(C)C(=O)[C@@H]2C1` at or above 0.04?
fulfilled

FYI, the data here is from PubChem BioAssay.
